# system: mGlyT-1b (Mus musculus, UniProt P28571)
# Construct: host or cells: Flp-in-CHO
# Sequence (P28571 1-651 isoform P28571-2): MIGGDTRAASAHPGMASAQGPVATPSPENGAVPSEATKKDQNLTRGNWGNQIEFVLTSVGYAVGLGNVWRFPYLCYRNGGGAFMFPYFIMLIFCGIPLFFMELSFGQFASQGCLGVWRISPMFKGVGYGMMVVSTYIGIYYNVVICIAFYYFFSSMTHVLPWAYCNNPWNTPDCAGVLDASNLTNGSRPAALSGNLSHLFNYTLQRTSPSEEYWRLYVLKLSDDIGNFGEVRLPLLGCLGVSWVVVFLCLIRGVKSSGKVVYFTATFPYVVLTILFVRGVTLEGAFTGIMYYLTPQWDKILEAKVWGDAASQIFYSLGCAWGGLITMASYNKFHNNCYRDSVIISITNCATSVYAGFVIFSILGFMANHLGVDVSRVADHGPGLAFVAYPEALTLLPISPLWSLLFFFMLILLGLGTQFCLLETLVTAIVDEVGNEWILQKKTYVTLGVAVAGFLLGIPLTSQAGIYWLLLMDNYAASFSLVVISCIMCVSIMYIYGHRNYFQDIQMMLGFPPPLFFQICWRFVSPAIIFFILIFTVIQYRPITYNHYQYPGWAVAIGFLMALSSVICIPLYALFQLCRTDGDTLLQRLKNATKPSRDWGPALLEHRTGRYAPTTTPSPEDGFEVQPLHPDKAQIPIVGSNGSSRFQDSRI
# protocol: Glycine uptake inhibition assay (mGlyT-1b), [3H]-glycine uptake in Flp-in-CHO cells
# Format: cell-based
# setupConditions: Flp-in-CHO cells stably transfected with mGlyT1b cDNA; [3H]-glycine 60 nM and 25 μM non-radioactive glycine; read-out: IC50 (μM) at GlyT-1
Each entry below lists one item and its recorded IC50 value.
Your answer should be a plain number; it is taken to be in µM.

- chemicalString: "CC(C)Oc1ccc(S(C)(=O)=O)cc1C(=O)N1CCc2nc(-c3cccs3)sc2C1"
  system: "mGlyT-1b (Mus musculus, UniProt P28571)"
  u: "µM"
  obsValue: 0.407

IN: Give IC50 for the following compound: CC(C)Oc1ccc(C#N)cc1C(=O)N1CCc2c(sc3ccc(Cl)cc23)C1
OUT: 0.339

IN: Give IC50 for the following compound: CS(=O)(=O)c1ccc(N2CCOCC2)c(C(=O)N2CCc3c(sc4ccc(Cl)cc34)C2)c1
OUT: 0.187

IN: Give IC50 for the following compound: CC(C)COc1ccc(S(C)(=O)=O)cc1C(=O)N1CCc2nc(-c3cccs3)sc2C1
OUT: 0.098

Source listed as patent US7375226B2.
